test system: Trychophyton mentagrophyes #6; assay: Agar plate disc diffusion test, MIC per disc; type: cell-based, Trichophyton mentagrophytes; settings: 0.1M sodium borate, pH 7.5, 24 hours, 30° C., * measurable zones with regrowth of organism around disc
Starred links: 1 amine or outer side, 2 acyl side, 3 side chain; linkers in the order of their positions; H or OH if unused. Positions of bridges follow the written chain, without caps; N, C: chain ends. Non-standard residues stand in square brackets, D forms with d. Residues, ends and D or L forms follow the SMILES beside them. *: point of attachment. Orn(4R-OH,5R-OH) = O=C([C@H](C[C@@H](O)[C@@H](O)N[*:3])N[*:1])[*:2]; hTyr(3S-OH,4S-OH) = N[C@H](C(=O)O)[C@H](O)[C@@H](O)c1ccc(O)cc1; Pro(3S-OH,4S-Me) = C[C@H]1CN[C@H](C(=O)O)[C@H]1O; Benzoyl(4-octyl) = CCCCCCCCc1ccc(C(=O)*)cc1; X5 = CCCCCCCCCCCCS(=O)(=O)c1ccc(C(=O)*)cc1; X4 = CCCCCCCCCCS(=O)(=O)c1ccc(C(=O)*)cc1; X23 = CCCCCCCCS(=O)(=O)c1ccc(C(=O)*)cc1; X11 = CCCCCCCCOc1ccc(OCC(=O)*)cc1; X21 = CCCCCCCCOc1ccc(CCC(=O)*)cc1; Hyp = O=C(O)[C@@H]1C[C@@H](O)CN1; X15 = CCCCCCCCOc1cccc(CC(=O)*)c1; X29 = CCCCCCCOc1ccc(CCC(=O)*)cc1; X12 = CCCCCCOc1ccc(CCC(=O)*)cc1; X17 = CCCCOc1ccc(CCC(=O)*)cc1
Response field label takes true when MIC is strictly below 0.2 μg/disc and false in all other cases.

| Compound | Target Or System | Category |
| --- | --- | --- |
| CCCCCCCCOc1cccc(CC(=O)N[C@H]2C[C@@H](O)[C@@H](O)NC(=O)[C@@H]3[C@@H](O)[C@@H](C)CN3C(=O)[C@H]([C@@H](C)O)NC(=O)[C@H]([C@H](O)[C@@H](O)c3ccc(O)cc3)NC(=O)[C@@H]3C[C@@H](O)CN3C(=O)[C@H]([C@@H](C)O)NC2=O)c1 [drawing 141] (X15-[Orn(4R-OH,5R-OH)]T[Hyp][hTyr(3S-OH,4S-OH)]T[Pro(3S-OH,4S-Me)]; lactam 1-C) | Trychophyton mentagrophyes #6 | false |
| CCCCCCCCOc1ccc(CCC(=O)N[C@H]2C[C@@H](O)[C@@H](O)NC(=O)[C@@H]3[C@@H](O)[C@@H](C)CN3C(=O)[C@H]([C@@H](C)O)NC(=O)[C@H]([C@H](O)[C@@H](O)c3ccc(O)cc3)NC(=O)[C@@H]3C[C@@H](O)CN3C(=O)[C@H]([C@@H](C)O)NC2=O)cc1 [drawing 136] (X21-[Orn(4R-OH,5R-OH)]T[Hyp][hTyr(3S-OH,4S-OH)]T[Pro(3S-OH,4S-Me)]; lactam 1-C) | Trychophyton mentagrophyes #6 | true |
| CCCCCCOc1ccc(CCC(=O)N[C@H]2C[C@@H](O)[C@@H](O)NC(=O)[C@@H]3[C@@H](O)[C@@H](C)CN3C(=O)[C@H]([C@@H](C)O)NC(=O)[C@H]([C@H](O)[C@@H](O)c3ccc(O)cc3)NC(=O)[C@@H]3C[C@@H](O)CN3C(=O)[C@H]([C@@H](C)O)NC2=O)cc1 [drawing 135] (X12-[Orn(4R-OH,5R-OH)]T[Hyp][hTyr(3S-OH,4S-OH)]T[Pro(3S-OH,4S-Me)]; lactam 1-C) | Trychophyton mentagrophyes #6 | true |
| CCCCCCCCS(=O)(=O)c1ccc(C(=O)N[C@H]2C[C@@H](O)[C@@H](O)NC(=O)[C@@H]3[C@@H](O)[C@@H](C)CN3C(=O)[C@H]([C@@H](C)O)NC(=O)[C@H]([C@H](O)[C@@H](O)c3ccc(O)cc3)NC(=O)[C@@H]3C[C@@H](O)CN3C(=O)[C@H]([C@@H](C)O)NC2=O)cc1 [drawing 123] (X23-[Orn(4R-OH,5R-OH)]T[Hyp][hTyr(3S-OH,4S-OH)]T[Pro(3S-OH,4S-Me)]; lactam 1-C) | Trychophyton mentagrophyes #6 | false |
| CCCCCCCCOc1ccc(OCC(=O)N[C@H]2C[C@@H](O)[C@@H](O)NC(=O)[C@@H]3[C@@H](O)[C@@H](C)CN3C(=O)[C@H]([C@@H](C)O)NC(=O)[C@H]([C@H](O)[C@@H](O)c3ccc(O)cc3)NC(=O)[C@@H]3C[C@@H](O)CN3C(=O)[C@H]([C@@H](C)O)NC2=O)cc1 [drawing 145] (X11-[Orn(4R-OH,5R-OH)]T[Hyp][hTyr(3S-OH,4S-OH)]T[Pro(3S-OH,4S-Me)]; lactam 1-C) | Trychophyton mentagrophyes #6 | false |

Quick check: does CCCCCCCCCCS(=O)(=O)c1ccc(C(=O)N[C@H]2C[C@@H](O)[C@@H](O)NC(=O)[C@@H]3[C@@H](O)[C@@H](C)CN3C(=O)[C@H]([C@@H](C)O)NC(=O)[C@H]([C@H](O)[C@@H](O)c3ccc(O)cc3)NC(=O)[C@@H]3C[C@@H](O)CN3C(=O)[C@H]([C@@H](C)O)NC2=O)cc1 [drawing 124] (X4-[Orn(4R-OH,5R-OH)]T[Hyp][hTyr(3S-OH,4S-OH)]T[Pro(3S-OH,4S-Me)]; lactam 1-C) have MIC under 0.2 μg/disc?
true

Quick check: does CCCCOc1ccc(CCC(=O)N[C@H]2C[C@@H](O)[C@@H](O)NC(=O)[C@@H]3[C@@H](O)[C@@H](C)CN3C(=O)[C@H]([C@@H](C)O)NC(=O)[C@H]([C@H](O)[C@@H](O)c3ccc(O)cc3)NC(=O)[C@@H]3C[C@@H](O)CN3C(=O)[C@H]([C@@H](C)O)NC2=O)cc1 [drawing 134] (X17-[Orn(4R-OH,5R-OH)]T[Hyp][hTyr(3S-OH,4S-OH)]T[Pro(3S-OH,4S-Me)]; lactam 1-C) have MIC under 0.2 μg/disc?
false

Quick check: does CCCCCCCOc1ccc(CCC(=O)N[C@H]2C[C@@H](O)[C@@H](O)NC(=O)[C@@H]3[C@@H](O)[C@@H](C)CN3C(=O)[C@H]([C@@H](C)O)NC(=O)[C@H]([C@H](O)[C@@H](O)c3ccc(O)cc3)NC(=O)[C@@H]3C[C@@H](O)CN3C(=O)[C@H]([C@@H](C)O)NC2=O)cc1 (X29-[Orn(4R-OH,5R-OH)]T[Hyp][hTyr(3S-OH,4S-OH)]T[Pro(3S-OH,4S-Me)]; lactam 1-C) have MIC under 0.2 μg/disc?
true

Quick check: does CCCCCCCCc1ccc(C(=O)N[C@H]2C[C@@H](O)[C@@H](O)NC(=O)[C@@H]3[C@@H](O)[C@@H](C)CN3C(=O)[C@H]([C@@H](C)O)NC(=O)[C@H]([C@H](O)[C@@H](O)c3ccc(O)cc3)NC(=O)[C@@H]3C[C@@H](O)CN3C(=O)[C@H]([C@@H](C)O)NC2=O)cc1 [drawing 133] ({Benzoyl(4-octyl)}-[Orn(4R-OH,5R-OH)]T[Hyp][hTyr(3S-OH,4S-OH)]T[Pro(3S-OH,4S-Me)]; lactam 1-C) have MIC under 0.2 μg/disc?
true

Quick check: does CCCCCCCCCCCCS(=O)(=O)c1ccc(C(=O)N[C@H]2C[C@@H](O)[C@@H](O)NC(=O)[C@@H]3[C@@H](O)[C@@H](C)CN3C(=O)[C@H]([C@@H](C)O)NC(=O)[C@H]([C@H](O)[C@@H](O)c3ccc(O)cc3)NC(=O)[C@@H]3C[C@@H](O)CN3C(=O)[C@H]([C@@H](C)O)NC2=O)cc1 [drawing 125] (X5-[Orn(4R-OH,5R-OH)]T[Hyp][hTyr(3S-OH,4S-OH)]T[Pro(3S-OH,4S-Me)]; lactam 1-C) have MIC under 0.2 μg/disc?
true

---

System: Candida albicans A-26
Assay: Agar plate disc diffusion test, MIC per disc
Format: cell-based
Settings: 0.1M sodium borate, pH 7.5, 24 hours, 30° C.
Protocol: Tables 10 and 11 give the results of the testing in vitro of the compounds of Examples 3 and 4 by agar-plate disc-diffusion methods. In Table 10 activity is measured by the size (diameter in mm) of the observed zone of inhibition of the microorganism produced by the test compound. In Table 11, activity is measured by the minimal inhibitory concentration (MIC) of the substance (μg/disc) required to inhibit growth of the test organism. […]
Starred links: 1 amine or outer side, 2 acyl side, 3 side chain; linkers in the order of their positions; H or OH if unused. Positions of bridges follow the written chain, without caps; N, C: chain ends. Non-standard residues stand in square brackets, D forms with d. Residues, ends and D or L forms follow the SMILES beside them. *: point of attachment. Orn(4R-OH,5R-OH) = O=C([C@H](C[C@@H](O)[C@@H](O)N[*:3])N[*:1])[*:2]; hTyr(3S-OH,4S-OH) = N[C@H](C(=O)O)[C@H](O)[C@@H](O)c1ccc(O)cc1; Pro(3S-OH,4S-Me) = C[C@H]1CN[C@H](C(=O)O)[C@H]1O; X2 = CCCCCCCCCCCCCCS(=O)(=O)c1ccc(C(=O)*)cc1; X4 = CCCCCCCCCCS(=O)(=O)c1ccc(C(=O)*)cc1; X22 = CCCCCCCCCCCCOc1ccc(CCC(=O)*)cc1; X16 = CCCCCCCCOc1ccc(C=CC(=O)*)cc1; Hyp = O=C(O)[C@@H]1C[C@@H](O)CN1; X19 = CCCCCCOc1ccc(C=CC(=O)*)cc1; X12 = CCCCCCOc1ccc(CCC(=O)*)cc1; X26 = CCCCCOc1ccc(CCC(=O)*)cc1; X17 = CCCCOc1ccc(CCC(=O)*)cc1
Measured Quantity: MIC (μg/disc)
A number alone suffices; assume μg/disc.

Would you please look over these solved cases?
| Compound | Units Text | Recorded Value |
| --- | --- | --- |
| CCCCCCOc1ccc(C=CC(=O)N[C@H]2C[C@@H](O)[C@@H](O)NC(=O)[C@@H]3[C@@H](O)[C@@H](C)CN3C(=O)[C@H]([C@@H](C)O)NC(=O)[C@H]([C@H](O)[C@@H](O)c3ccc(O)cc3)NC(=O)[C@@H]3C[C@@H](O)CN3C(=O)[C@H]([C@@H](C)O)NC2=O)cc1 [drawing 139] (X19-[Orn(4R-OH,5R-OH)]T[Hyp][hTyr(3S-OH,4S-OH)]T[Pro(3S-OH,4S-Me)]; lactam 1-C) | μg/disc | 1.25 |
| CCCCCCOc1ccc(CCC(=O)N[C@H]2C[C@@H](O)[C@@H](O)NC(=O)[C@@H]3[C@@H](O)[C@@H](C)CN3C(=O)[C@H]([C@@H](C)O)NC(=O)[C@H]([C@H](O)[C@@H](O)c3ccc(O)cc3)NC(=O)[C@@H]3C[C@@H](O)CN3C(=O)[C@H]([C@@H](C)O)NC2=O)cc1 [drawing 135] (X12-[Orn(4R-OH,5R-OH)]T[Hyp][hTyr(3S-OH,4S-OH)]T[Pro(3S-OH,4S-Me)]; lactam 1-C) | μg/disc | 0.625 |
| CCCCCCCCCCCCCCS(=O)(=O)c1ccc(C(=O)N[C@H]2C[C@@H](O)[C@@H](O)NC(=O)[C@@H]3[C@@H](O)[C@@H](C)CN3C(=O)[C@H]([C@@H](C)O)NC(=O)[C@H]([C@H](O)[C@@H](O)c3ccc(O)cc3)NC(=O)[C@@H]3C[C@@H](O)CN3C(=O)[C@H]([C@@H](C)O)NC2=O)cc1 [drawing 126] (X2-[Orn(4R-OH,5R-OH)]T[Hyp][hTyr(3S-OH,4S-OH)]T[Pro(3S-OH,4S-Me)]; lactam 1-C) | μg/disc | 0.625 |
| CCCCCCCCCCCCOc1ccc(CCC(=O)N[C@H]2C[C@@H](O)[C@@H](O)NC(=O)[C@@H]3[C@@H](O)[C@@H](C)CN3C(=O)[C@H]([C@@H](C)O)NC(=O)[C@H]([C@H](O)[C@@H](O)c3ccc(O)cc3)NC(=O)[C@@H]3C[C@@H](O)CN3C(=O)[C@H]([C@@H](C)O)NC2=O)cc1 [drawing 137] (X22-[Orn(4R-OH,5R-OH)]T[Hyp][hTyr(3S-OH,4S-OH)]T[Pro(3S-OH,4S-Me)]; lactam 1-C) | μg/disc | 0.312 |
| CCCCCOc1ccc(CCC(=O)N[C@H]2C[C@@H](O)[C@@H](O)NC(=O)[C@@H]3[C@@H](O)[C@@H](C)CN3C(=O)[C@H]([C@@H](C)O)NC(=O)[C@H]([C@H](O)[C@@H](O)c3ccc(O)cc3)NC(=O)[C@@H]3C[C@@H](O)CN3C(=O)[C@H]([C@@H](C)O)NC2=O)cc1 (X26-[Orn(4R-OH,5R-OH)]T[Hyp][hTyr(3S-OH,4S-OH)]T[Pro(3S-OH,4S-Me)]; lactam 1-C) | μg/disc | 5 |
| CCCCOc1ccc(CCC(=O)N[C@H]2C[C@@H](O)[C@@H](O)NC(=O)[C@@H]3[C@@H](O)[C@@H](C)CN3C(=O)[C@H]([C@@H](C)O)NC(=O)[C@H]([C@H](O)[C@@H](O)c3ccc(O)cc3)NC(=O)[C@@H]3C[C@@H](O)CN3C(=O)[C@H]([C@@H](C)O)NC2=O)cc1 [drawing 134] (X17-[Orn(4R-OH,5R-OH)]T[Hyp][hTyr(3S-OH,4S-OH)]T[Pro(3S-OH,4S-Me)]; lactam 1-C) | μg/disc | 20 |

// field: MIC; key: CCCCCCCCOc1ccc(C=CC(=O)N[C@H]2C[C@@H](O)[C@@H](O)NC(=O)[C@@H]3[C@@H](O)[C@@H](C)CN3C(=O)[C@H]([C@@H](C)O)NC(=O)[C@H]([C@H](O)[C@@H](O)c3ccc(O)cc3)NC(=O)[C@@H]3C[C@@H](O)CN3C(=O)[C@H]([C@@H](C)O)NC2=O)cc1 [drawing 140] (X16-[Orn(4R-OH,5R-OH)]T[Hyp][hTyr(3S-OH,4S-OH)]T[Pro(3S-OH,4S-Me)]; lactam 1-C) ; value = 0.156

// field: MIC; key: CCCCCCCCCCS(=O)(=O)c1ccc(C(=O)N[C@H]2C[C@@H](O)[C@@H](O)NC(=O)[C@@H]3[C@@H](O)[C@@H](C)CN3C(=O)[C@H]([C@@H](C)O)NC(=O)[C@H]([C@H](O)[C@@H](O)c3ccc(O)cc3)NC(=O)[C@@H]3C[C@@H](O)CN3C(=O)[C@H]([C@@H](C)O)NC2=O)cc1 [drawing 124] (X4-[Orn(4R-OH,5R-OH)]T[Hyp][hTyr(3S-OH,4S-OH)]T[Pro(3S-OH,4S-Me)]; lactam 1-C) ; value = 2.5
